system: KB; assay: Cytotoxicity against human KB cells incubated for 48 hrs at 37 degC; format: functional, cell-based
Reported IC50 values for a set of compounds

For this compound ( CCC(C)C(=O)C1=C2O[C@H](C(C)(C)O)C[C@]2(C)C(=O)[C@]2(C[C@H]3[C@@H](CC[C@@]3(C)O)[C@](C)(O)C2)C1=O (stereo not given in full) ), measured IC50 is > 10 µg/mL

Item: CC(C)=CC[C@]1(C)C(=O)[C@@]2(C[C@H]3[C@@H](CC[C@@]3(C)O)[C@](C)(O)C2)C(=O)C(C(=O)C(C)C)=C1O (relative stereo) | IC50: > 10 µg/mL

CCC(C)C(=O)C1=C(O)[C@@](C)(CC=C(C)C)C(=O)[C@@]2(C[C@H]3[C@@H](CC[C@@]3(C)O)[C@](C)(O)C2)C1=O (relative stereo) yielded IC50 of > 10 µg/mL

Field IC50 (entry CC(=O)O[C@H]1C(=O)[C@@]2(C)[C@H]([C@H](OC(=O)c3ccccc3)[C@]3(O)C[C@H](OC(=O)[C@H](O)[C@@H](NC(=O)c4ccccc4)c4ccccc4)C(C)=C1C3(C)C)[C@]1(OC(C)=O)CO[C@@H]1C[C@@H]2O ) reads 4.5 nM

Note to self: IC50 recorded for CC(C)C(=O)C1=C2O[C@H](C(C)(C)O)C[C@]2(C)C(=O)[C@]2(C[C@H]3[C@@H](CC[C@@]3(C)O)[C@](C)(O)C2)C1=O (relative stereo) was > 10 µg/mL

---

system: Micrococcus luteus; experiment: Antimicrobial activity against Micrococcus luteus by broth micro-dilution method; type: functional
Listed next: entries and their corresponding MIC.

Observed MIC, Micrococcus luteus, CC(C)=CC[C@]1(C)C(=O)[C@@]2(C[C@H]3[C@@H](CC[C@@]3(C)O)[C@](C)(O)C2)C(=O)C(C(=O)C(C)C)=C1O (relative stereo) : > 32 µg/mL

GET /values?item= CC(C)C(=O)C1=C2O[C@H](C(C)(C)O)C[C@]2(C)C(=O)[C@]2(C[C@H]3[C@@H](CC[C@@]3(C)O)[C@](C)(O)C2)C1=O (relative stereo) &system= Micrococcus luteus returns MIC: > 32 µg/mL

Entry CCC(C)C(=O)C1=C(O)[C@@](C)(CC=C(C)C)C(=O)[C@@]2(C[C@H]3[C@@H](CC[C@@]3(C)O)[C@](C)(O)C2)C1=O (relative stereo) , Micrococcus luteus data, MIC value: > 32 µg/mL

The molecule CCC(C)C(=O)C1=C2O[C@H](C(C)(C)O)C[C@]2(C)C(=O)[C@]2(C[C@H]3[C@@H](CC[C@@]3(C)O)[C@](C)(O)C2)C1=O (some centres undefined) [CHIPERICUMIN B] on Micrococcus luteus: MIC was > 32 µg/mL
